- ASSAY_EXPLANATION: cancer stem cell viability inhibitors, primary screen, luminescence (AID 2717)
- ASSAY_CONTEXT: cancer stem cell-like cells viability, at 7.5 µM, active compounds read high
Screen size: about 300,000 compounds; about 3,200 (1.1%) were called active. The sample as a whole holds a higher share of actives than the screen did.
PROPERTY_MEASURED: inhibition (%)
Kindly answer with a numeric value in %, unit omitted.

# annotated cases, reported inhibition shown
{"COMPOUND": "CCCCn1c(CN2CCN(CCO)CC2)nc2ccccc21", "inhibition (%)": -13.9}
{"COMPOUND": "CCOCc1c(C(=O)N2CCN(Cc3ccc(Br)s3)CC2)oc2ccccc12", "inhibition (%)": -4.05}
{"COMPOUND": "CC(C)(C)OC(=O)N[C@H](C(=O)OC(C)(C)C)c1ccc(Br)cc1", "inhibition (%)": 0.862}
{"COMPOUND": "CCCCn1c(SCC(=O)NCC2CCCO2)nc2ccc(N3CCOCC3)cc2c1=O (centres undefined)", "inhibition (%)": 34.5}
{"COMPOUND": "CC(=O)C(CC(=O)N1CCCC1)C(=O)Nc1ccc(Cl)cc1 (centres undefined)", "inhibition (%)": -5.74}
{"COMPOUND": "CCOC(=O)C1CCN(C(=O)CN2C(=O)NC(C)(c3ccc4cc(OC)ccc4c3)C2=O)CC1 (centres undefined)", "inhibition (%)": -9.85}

The measured inhibition associated with `N#CCSc1nc2ccc(N3CCOCC3)cc2c(=O)n1CCc1ccccc1` reads 77.9

The reported measurements were obtained from PubChem BioAssay AID2717.
